Tested on: NCI-H460
Assay: NCI tumour cell line growth inhibition, 48 h
Activity calls are given as the source filed them. No stated cut-off is given here; in the data, active = GI50 up to about 1.1 µM and inactive = higher.
Recorded GI50 values for a group of compounds are listed next.

Known results for compounds:
C1=N\CCOCC/N=C/c2ccccc2OCc2cccc(n2)COc2ccccc2/1: > 25 µM (inactive)
C1CSCCSCCSCCSCCS1: > 100 µM (inactive)

# value lookup — system NCI-H460, readout GI50, item Cc1nc(Cl)nc(Cl)c1C
> 100 µM (inactive)

###

Measured GI50, listed per entry for reference.
System: OVCAR-4
Experiment: NCI tumour cell line growth inhibition, 48 h
Calls of active or inactive are those of the source. No stated cut-off is given here; in the data, active = GI50 up to about 1.1 µM and inactive = higher.

Answered cases to consult:
CSc1nc2c(nc(N)n2C2OC(CO)C(O)C(O)C2O)c(=O)n1C (stereo not given): > 100 µM (inactive)
CC1=CC(=O)CCC2(C)C1CC[C@@H]2OC=O (stereo not given in full): > 100 µM (inactive)
CC(C)C1COC(C(C)(C)C2=N[C@@H](C(C)C)CO2)=N1 (stereo not given in full): > 100 µM (inactive)

Reported GI50, compound O=C1N/C(=N/N=C\c2ccccc2)N/C1=C/c1ccccc1 : ____
15.2 µM (inactive)

Now the compound Cc1ccc(S(=O)(=O)n2cc(/C=C/C#N)c(-c3cn(S(=O)(=O)c4ccc(C)cc4)cc3-c3cn(S(=O)(=O)c4ccc(C)cc4)cc3/C=C/C#N)c2)cc1
> 100 µM (inactive)

Another: Cn1c2ccc3cc2c(=S)c2cc(ccc21)OCCOCCOCCOCCOCCOCCO3
> 10 µM (inactive)

Let us now turn to Cc1cc(C)c(S(=O)(=O)N(CCCN)OCCON(CCCN)S(=O)(=O)c2c(C)cc(C)cc2C)c(C)c1
3.3 µM (inactive)

Try this compound too: O=C(/C=C/c1ccccc1)Oc1cccc(Br)c1
93.8 µM (inactive)

And for C/N=C1\S/C(=N\c2ccc(N(C)C)cc2)N1C ?
44.1 µM (inactive)

Item: O=[N+]([O-])c1ccc(Cl)cc1/C=N/C12CC3CC(CC(C3)C1)C2
63.5 µM (inactive)
